Reported protease stability score is given for each of the following sequences.
- test description: protease stability score; higher = more stable; yeast display proteolysis, trypsin and chymotrypsin;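 note: relative to predicted unfolded state with 0 unfolded-like and 1 meaning tenfold more protease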
Answer field: number only, no words.

sequence content: DEDEESTKHALELWEESMETGDEHDLKHLVDPHARLEVGDKTYHGREAVHVLFRRIDHLHDIRIDHVEVQGNKIHMDVTLNYYFNGRVEEEKFEILILKINGRWRIKSMRIK
protease stability score: 1.78
//
sequence content: DEHEELLEHIIRLWLKYIHTGDFRNWMKYADPNAKWRTENHEHHGREEIARDLHEFNKKLGMEFRIDLRHFEIQGDKVRMHTEYILHIGDYTERRETEVTVIIVDGKIKSIRLLVR
protease stability score: 1.67
//
sequence content: SEDDEHMKEIWRILQHSLETGDFHILSRMADPNAKFDIGDKEIVGMHLWIEELLRYKNRQIRVHYHEMRVYDGKIDSRERYDVKYGDKELTTELRVHARKIDGRWVLEDVRVH
protease stability score: 0.668
//
sequence content: DHDEKRVREILELFLNAITTGDEETLRHLLDPNVKTDINGVELHGWKDILHHLMEMRIHVRHYETRHLNKIGEYLHLEVHVYGEHHFDGRTREDTYYVNVIILKVNGRWHLHQFSVH
protease stability score: 1.39

Now for another entry.
Any idea what protease stability score was measured for `DETHKDAERALEIEIRDFVTGDFKSMQRLADPNVKIEVGDKHWHGREEFEKLVKEVIDQFPNMRLDVRVTHWELQGEKLIMRTEVNEHFDGVTFKHETHIIIRKINGRWFLTSVHIQ` ?
1.36

Entry source: the NTF2 design screens of Basanta et al. (2020)
